- EXPERIMENTAL_TARGET: hMeprin β (Homo sapiens, UniProt Q16820)
- Sequence (Q16820 62-701): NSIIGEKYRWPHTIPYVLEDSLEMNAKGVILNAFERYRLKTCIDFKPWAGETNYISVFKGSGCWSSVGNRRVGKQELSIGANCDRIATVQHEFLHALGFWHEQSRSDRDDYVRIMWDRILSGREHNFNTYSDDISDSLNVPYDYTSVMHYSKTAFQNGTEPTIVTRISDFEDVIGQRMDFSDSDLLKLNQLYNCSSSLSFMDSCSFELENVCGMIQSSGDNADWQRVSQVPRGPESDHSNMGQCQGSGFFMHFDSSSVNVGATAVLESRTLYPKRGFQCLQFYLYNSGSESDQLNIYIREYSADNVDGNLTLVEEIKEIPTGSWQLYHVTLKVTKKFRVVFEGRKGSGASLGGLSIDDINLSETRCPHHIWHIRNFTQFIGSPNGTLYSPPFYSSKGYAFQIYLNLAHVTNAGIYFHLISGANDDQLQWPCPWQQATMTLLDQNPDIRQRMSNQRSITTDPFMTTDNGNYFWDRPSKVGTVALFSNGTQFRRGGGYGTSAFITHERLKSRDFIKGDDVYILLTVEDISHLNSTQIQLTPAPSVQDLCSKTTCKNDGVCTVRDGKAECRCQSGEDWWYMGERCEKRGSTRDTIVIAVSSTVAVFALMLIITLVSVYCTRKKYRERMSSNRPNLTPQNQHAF
- METHOD_NOTES: Enzymatic assay, cleavage of internally quenched peptide substrate, hMeprin β
- Assay type: biochemical
- ASSAY_CONDITIONS: average IC50; 10 μM substrate, 30° C., 40 mM Tris pH 8.0; read-out: Meprin Beta IC50
REPORTED_PROPERTY: IC50 (µM)

# COMPOUND, REPORTED_PROPERTY, NUMBER
records = [
    ("CC(C)[C@@H](NCc1cccc(C(=O)O)c1)C(=O)NO [Example 34]", "IC50", 11.8),
    ("C[C@@H](NCc1cccc(C(=O)O)c1)C(=O)NO [Example 33]", "IC50", 4.25),
    ("O=C(CNCc1cccc(C(=O)O)c1)NO [Example 3]", "IC50", 0.377),
    ("O=C(CN(Cc1ccc(C(=O)O)cc1)Cc1cccc(C(=O)O)c1)NO [Example 7]", "IC50", 0.206),
    ("O=C(CN(Cc1cccc(OC(F)F)c1)Cc1cccc(OC(F)F)c1)NO [Example 72]", "IC50", 57),
    ("N#Cc1cccc(CN(CC(=O)NO)Cc2cccc(C#N)c2)c1 [Example 40]", "IC50", 12),
    ("COc1cccc(CN(CC(=O)NO)Cc2cccc(C(=O)O)c2)c1 [Example 14]", "IC50", 0.559),
    ("O=C(CN(Cc1ccc(F)c(O)c1)Cc1ccc(F)c(O)c1)NO [Example 50]", "IC50", 1.06),
    ("C[C@H](NCc1cccc(C(=O)O)c1)C(=O)NO [Example 28]", "IC50", 4.2),
    ("O=C(O)c1cccc(CN[C@H](Cc2ccccc2)C(=O)NO)c1 [Example 35]", "IC50", 2.91),
    ("O=C(O)c1cccc(CN[C@@H](Cc2ccccc2)C(=O)NO)c1 [Example 30]", "IC50", 15.5),
    ("N#Cc1ccc(CN(CC(=O)NO)Cc2cccc(C(=O)O)c2)cc1 [Example 19]", "IC50", 0.32),
    ("O=C(O)c1cccc(CN[C@@H](C(=O)NO)c2ccccc2)c1 [Example 36]", "IC50", 11.7),
    ("CCOC(=O)c1cccc(CN(CC(=O)NO)Cc2cccc(C(=O)OCC)c2)c1 [Example 54]", "IC50", 94.9),
    ("O=C(O)C[C@H](NCc1cccc(C(=O)O)c1)C(=O)NO [Example 45]", "IC50", 1.32),
    ("O=C(CN(Cc1ccc(Cl)cc1)Cc1cccc(C(=O)O)c1)NO [Example 20]", "IC50", 0.076),
    ("O=C(CN(Cc1c(F)ccc(O)c1F)Cc1c(F)ccc(O)c1F)NO [Example 49]", "IC50", 5.51),
    ("O=C(O)CC[C@@H](NCc1cccc(C(=O)O)c1)C(=O)NO [Example 44]", "IC50", 0.768),
    ("O=C(O)c1cccc(CN[C@H](C(=O)NO)c2ccccc2)c1 [Example 37]", "IC50", 12.2),
    ("O=C(CN(Cc1cc(F)c(O)c(F)c1)Cc1cc(F)c(O)c(F)c1)NO [Example 48]", "IC50", 0.272),
]
